Quick reference for pIC50 among some sequences
# Experimental system: purified HLA DRB1 *1501 (Homo sapiens, UniProt P01903+P01911)
# Assay: IC50nM to purified HLA | DRB1 *1501
pIC50: −log10 of the molar value. Where no end group is shown, it is not given here.
Experimental readout: pIC50

>>> df
                     residue_codes  numeric_result
0  AAAFFVAAFTLKADA [SEQ ID NO: 18]            7.18
1  AAAFFVAAFTLHAAA [SEQ ID NO: 14]            7.60
2  AAAFFVAAYTLHAAA [SEQ ID NO: 13]            8.32
3  AAAYFVAAYTLHAAA [SEQ ID NO: 22]            8.40
4  AAAFFVAANTLKADA [SEQ ID NO: 19]            6.99
5  AAAFFVAAYTLKADA [SEQ ID NO: 17]            7.60
6  AAAFFVAAWTLHAAA [SEQ ID NO: 12]            7.60
